Give measured pEC50 for each item. Keep answers brief.
target-entity: Adenosine receptor A2b (Homo sapiens)
Sequence (P29275 whole entry): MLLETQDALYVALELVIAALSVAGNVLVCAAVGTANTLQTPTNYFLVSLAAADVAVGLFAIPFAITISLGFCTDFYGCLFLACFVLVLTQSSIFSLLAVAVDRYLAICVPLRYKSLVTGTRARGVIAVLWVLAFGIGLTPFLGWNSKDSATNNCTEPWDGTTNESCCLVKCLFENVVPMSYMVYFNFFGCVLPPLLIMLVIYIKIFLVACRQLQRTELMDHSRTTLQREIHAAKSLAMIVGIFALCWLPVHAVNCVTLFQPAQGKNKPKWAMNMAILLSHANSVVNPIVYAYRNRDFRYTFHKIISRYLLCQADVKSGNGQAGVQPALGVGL
test-summary: Effective concentration for cAMP production in CHO-KI cells stably transfected with human adenosine A2B receptor cDNA
Give bare numbers, as −log10 of the molar value.

Example results:
Query: Provide one value: measured pEC50 of "CONC(=O)[C@H]1O[C@@H](n2cnc3c(N)ncnc32)[C@H](O)[C@@H]1O"
Response: 4.35

Query: Provide one value: measured pEC50 of "Nc1ncnc2c1ncn2[C@@H]1O[C@H](C(=O)NC2CCCC2)[C@@H](O)[C@H]1O"
Response: 4.27

Query: Provide one value: measured pEC50 of "Nc1ncnc2c1ncn2[C@@H]1O[C@H](C(=O)NCCCl)[C@@H](O)[C@H]1O"
Response: 4.49

Query: Provide one value: measured pEC50 of "CNC(=O)[C@H]1O[C@@H](n2cnc3c(N)ncnc32)[C@H](O)[C@@H]1O"
Response: 4.35

Query: Provide one value: measured pEC50 of "Nc1ncnc2c1ncn2[C@@H]1O[C@H](C(=O)NC2CCC2)[C@@H](O)[C@H]1O"
Response: 4.48

// each compound listed below needs its pEC50
1. Nc1ncnc2c1ncn2[C@@H]1O[C@H](C(=S)NC2CC2)[C@@H](O)[C@H]1O
2. Nc1ncnc2c1ncn2[C@@H]1O[C@H](C(=O)NC2CC2)[C@@H](O)[C@H]1O
3. CC(C)NC(=O)[C@H]1OC(n2cnc3c(N)ncnc32)[C@H](O)[C@@H]1O (stereo not given in full)
4. CCNC(=S)[C@H]1O[C@@H](n2cnc3c(N)ncnc32)[C@H](O)[C@@H]1O
5. CNC(=O)[C@H]1O[C@@H](n2cnc3c(NCc4cccc(I)c4)ncnc32)[C@H](O)[C@@H]1O [IB-MECA]

Response:
1: 4.89; 2: 5.28; 3: 4.43; 4: 4.80; 5: 4.96

###

Give measured Ki for each item. Keep answers brief.
target-entity: Adenosine receptor A3 (Homo sapiens, UniProt P0DMS8)
Sequence (P0DMS8 whole entry): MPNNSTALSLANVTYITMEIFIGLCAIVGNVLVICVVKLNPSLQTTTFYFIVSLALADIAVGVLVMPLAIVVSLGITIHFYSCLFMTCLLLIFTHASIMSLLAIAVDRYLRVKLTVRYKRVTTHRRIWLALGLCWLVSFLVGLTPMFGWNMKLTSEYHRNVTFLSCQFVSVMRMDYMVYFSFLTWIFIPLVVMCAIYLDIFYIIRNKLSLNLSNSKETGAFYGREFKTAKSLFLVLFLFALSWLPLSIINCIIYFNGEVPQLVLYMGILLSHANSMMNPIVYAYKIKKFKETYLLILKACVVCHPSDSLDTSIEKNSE
test-summary: Ability to displace radioligand [125I]AB-MECA from membrane of HEK 293 cells stably transfected with human adenosine A3 receptor cDNA
Assay type: cell membranes, HEK293
Give bare numbers, in µM.

Query: Provide one value: measured Ki of "CC(C)(C)NC(=O)[C@H]1O[C@@H](n2cnc3c(N)ncnc32)[C@H](O)[C@@H]1O"
Response: 8.5

Next:
Query: Provide one value: measured Ki of "Nc1ncnc2c1ncn2[C@@H]1O[C@H](C(=O)NCCCl)[C@@H](O)[C@H]1O"
Response: 0.322

###

test-summary: GTP shift was determined
One threshold, 3, splits the recorded GTP shift values: lower ones are Satisfied, equal or higher ones are Not satisfied.

Query: Take the compound "CC(C)(C)NC(=O)[C@H]1O[C@@H](n2cnc3c(N)ncnc32)[C@H](O)[C@@H]1O" and say whether its GTP shift is less than 3.
Response: Satisfied

Query: Take the compound "Nc1ncnc2c1ncn2[C@@H]1O[C@H](C(=O)NCCCl)[C@@H](O)[C@H]1O" and say whether its GTP shift is less than 3.
Response: Not satisfied

Query: Take the compound "CCNC(=S)[C@H]1O[C@@H](n2cnc3c(N)ncnc32)[C@H](O)[C@@H]1O" and say whether its GTP shift is less than 3.
Response: Not satisfied

Query: Take the compound "CONC(=O)[C@H]1O[C@@H](n2cnc3c(N)ncnc32)[C@H](O)[C@@H]1O" and say whether its GTP shift is less than 3.
Response: Satisfied

Kindly consider the entry below.
Query: Take the compound CC(C)NC(=O)[C@H]1OC(n2cnc3c(N)ncnc32)[C@H](O)[C@@H]1O (stereo not given in full) and say whether its GTP shift is less than 3.
Response: Not satisfied
